Readings of EC50 for the listed binders
# measurement_target: T1, human Nectin-4 extracellular antigen hNectin-4-His (human, UniProt Q96NY8 32-349)
# T1 construct: C-terminal 8xHis tag included
# T1 sequence: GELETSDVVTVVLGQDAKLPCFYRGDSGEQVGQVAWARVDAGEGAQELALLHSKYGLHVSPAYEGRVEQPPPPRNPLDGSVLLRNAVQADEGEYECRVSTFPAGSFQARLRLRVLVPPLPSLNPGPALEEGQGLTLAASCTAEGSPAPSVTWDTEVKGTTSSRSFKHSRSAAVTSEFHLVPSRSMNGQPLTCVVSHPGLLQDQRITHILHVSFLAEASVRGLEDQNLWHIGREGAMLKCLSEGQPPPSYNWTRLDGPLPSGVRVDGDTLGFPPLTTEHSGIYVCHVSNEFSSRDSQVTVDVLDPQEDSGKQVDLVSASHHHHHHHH
# assay_name: ELISA, coated hNectin-4-His
# number only, unit µg/mL dropped from output

# input Name the reported EC50 value associated with the binder antibody 10F4-1C3 (antibody, human IgG1, kappa, V domains shown) VH: EVQLVESGGGLVQPGGSLRLSCAASGYSFSDYWMSWVRQAPGKGLEWVSSIKQTGGVKHYADSVKGRFTISRDNSKNTLYLQMNSLRAEDTAVYYCAREYSDVVDYVSVRTPLDYWGQGTLVTVSS VL: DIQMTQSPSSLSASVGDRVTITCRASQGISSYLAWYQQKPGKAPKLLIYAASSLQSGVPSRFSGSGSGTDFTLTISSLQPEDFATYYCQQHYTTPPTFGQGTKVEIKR
# output 0.053

# input Let us now turn to antibody 10F4-1F8 (antibody, human IgG1, kappa, V domains shown) VH: EVQLVESGGGLVQPGGSLRLSCAASGYTFTDYDMSWVRQAPGKGLEWVSSIITDGGGAFYADSVKGRFTISRDNSKNTLYLQMNSLRAEDTAVYYCAREYSDVVDYVSVRTPLDYWGQGTLVTVSS VL: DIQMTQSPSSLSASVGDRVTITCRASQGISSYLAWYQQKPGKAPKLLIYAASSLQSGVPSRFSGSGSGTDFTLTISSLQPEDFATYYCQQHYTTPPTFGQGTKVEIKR
# output 0.054

# input And the next one, antibody 10F4-2C12 (antibody, human IgG1, kappa, V domains shown) VH: EVQLVESGGGLVQPGGSLRLSCAASGYNFGDYSMSWVRQAPGKGLEWVSVIDTTSAYTRYADSVKGRFTISRDNSKNTLYLQMNSLRAEDTAVYYCAREYSDVVDYVSVRTPLDYWGQGTLVTVSS VL: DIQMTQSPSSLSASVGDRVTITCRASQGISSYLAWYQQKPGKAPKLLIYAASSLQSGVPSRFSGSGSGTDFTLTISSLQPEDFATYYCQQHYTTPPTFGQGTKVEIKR ?
# output 0.06

# input Now the binder antibody 10F4-1C10 (antibody, human IgG1, kappa, V domains shown) VH: EVQLVESGGGLVQPGGSLRLSCAASGYNFGSYDMSWVRQAPGKGLEWVSGIKTYGGNTHYADSVKGRFTISRDNSKNTLYLQMNSLRAEDTAVYYCAREYSDVVDYVSVRTPLDYWGQGTLVTVSS VL: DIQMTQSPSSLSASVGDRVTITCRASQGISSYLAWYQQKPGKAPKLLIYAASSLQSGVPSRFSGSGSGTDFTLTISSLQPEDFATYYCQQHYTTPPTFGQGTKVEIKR
# output 0.058

# input Likewise for antibody 10F4-2C6 (antibody, human IgG1, kappa, V domains shown) VH: EVQLVESGGGLVQPGGSLRLSCAASGFNFGGFDMSWVRQAPGKGLEWVSGIKQYKGYTSYADSVKGRFTISRDNSKNTLYLQMNSLRAEDTAVYYCAREYSDVVDYVSVRTPLDYWGQGTLVTVSS VL: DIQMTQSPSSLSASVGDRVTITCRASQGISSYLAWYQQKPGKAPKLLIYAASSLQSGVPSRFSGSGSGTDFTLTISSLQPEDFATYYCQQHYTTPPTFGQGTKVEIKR ?
# output 0.09
